The entries below are paired with their reported IC50.
- System: 994946-033-R-J1-PDC complex spheroid viability;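 note: spheroids exposed to drugs for 7 days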
- protocol: Anticancer human tumor 994946-033-R-J1-PDC patient-derived melanoma cell line growth inhibition [POLQ]
- cond: curve of first compound; second compound 0.1 µM
Use µM as the unit, but write only the number.

compound	target.or.test.system	IC50 (µM)
C#Cc1c(F)ccc2cc(O)cc(-c3ncc4c(N5CC6CCC(C5)N6)nc(OCC56CCCN5CC(F)C6)nc4c3F)c12 (stereo not given) + Nc1ccc(C#CCN(C(=O)Cc2ncc(C(F)(F)F)cc2C(F)(F)F)c2ccc(F)cc2)nn1	994946-033-R-J1-PDC complex spheroid viability	5.46

Next compound, IC50 to be filled in.
Prompt: Which IC50 value belongs to CC(C)n1c(=O)n(C)c2cnc3cc(F)c(-c4ccc(OCCCN5CCCCC5)nc4)cc3c21 + Cc1cccc(N(C)C(=O)C2C(O)CCN2c2nc(C)cc(C(F)(F)F)c2C#N)c1 ?
Response: 4.69
